# Test system: HeLa Kyoto
# procedureText: thermal stability score vs G1/S (z-score of summed log2 fold changes over temperatures); higher = more thermally stable than in G1/S
# conditionDescription: cell cycle stage: mitosis
parameterMeasured: thermal stability score

>>> datavalue("MAPQNLSTFCLLLLYLIGAVIAGRDFYKILGVPRSASIKDIKKAYRKLALQLHPDRNPDDPQAQEKFQDLGAAYEVLSDSEKRKQYDTYGEEGLKDGHQSSHGDIFSHFFGDFGFMFGGTPRQQDRNIPRGSDIIVDLEVTLEEVYAGNFVEVVRNKPVARQAPGKRKCNCRQEMRTTQLGPGRFQMTQEVVCDECPNVKLVNEERTLEVEIEPGVRDGMEYPFIGEGEPHVDGEPGDLRFRIKVVKHPIFERRGDDLYTNVTISLVESLVGFEMDITHLDGHKVHISRDKITRPGAKLWKKGEGLPNFDNNNIKGSLIITFDVDFPKEQLTEEAREGIKQLLKQGSVQKVYNGLQGY [DNAJB11]")
0.842
>>> datavalue("MEPTAPSLTEEDLTEVKKDALENLRVYLCEKIIAERHFDHLRAKKILSREDTEEISCRTSSRKRAGKLLDYLQENPKGLDTLVESIRREKTQNFLIQKITDEVLKLRNIKLEHLKGLKCSSCEPFPDGATNNLSRSNSDESNFSEKLRASTVMYHPEGESSTTPFFSTNSSLNLPVLEVGRTENTIFSSTTLPRPGDPGAPPLPPDLQLEEEGTCANSSEMFLPLRSRTVSRQ [BCL10]")
-0.726
>>> datavalue("MFKKFDEKENVSNCIQLKTSVIKGIKNQLIEQFPGIEPWLNQIMPKKDPVKIVRCHEHIEILTVNGELLFFRQREGPFYPTLRLLHKYPFILPHQQVDKGAIKFVLSGANIMCPGLTSPGAKLYPAAVDTIVAIMAEGKQHALCVGVMKMSAEDIEKVNKGIGIENIHYLNDGLWHMKTYK [MCTS1]")
-1.6

---

# Tested on: HeLa Kyoto
# procedureText: solubility in G1/S (NP-40 vs SDS abundance) (log2 ratio); higher = more soluble
# conditionDescription: cell cycle stage: G1/S
I would appreciate it if you labelled entries MET when solubility in G1/S (log2) is -0.004 or higher, otherwise NOT MET.

>>> label("MGLLAFLKTQFVLHLLVGFVFVVSGLVINFVQLCTLALWPVSKQLYRRLNCRLAYSLWSQLVMLLEWWSCTECTLFTDQATVERFGKEHAVIILNHNFEIDFLCGWTMCERFGVLGSSKVLAKKELLYVPLIGWTWYFLEIVFCKRKWEEDRDTVVEGLRRLSDYPEYMWFLLYCEGTRFTETKHRVSMEVAAAKGLPVLKYHLLPRTKGFTTAVKCLRGTVAAVYDVTLNFRGNKNPSLLGILYGKKYEADMCVRRFPLEDIPLDEKEAAQWLHKLYQEKDALQEIYNQKGMFPGEQFKPARRPWTLLNFLSWATILLSPLFSFVLGVFASGSPLLILTFLGFVGAASFGVRRLIGVTEIEKGSSYGNQEFKKKE [AGPAT3]")
"NOT MET"
>>> label("MAKGDPKKPKGKMSAYAFFVQTCREEHKKKNPEVPVNFAEFSKKCSERWKTMSGKEKSKFDEMAKADKVRYDREMKDYGPAKGGKKKKDPNAPKRPPSGFFLFCSEFRPKIKSTNPGISIGDVAKKLGEMWNNLNDSEKQPYITKAAKLKEKYEKDVADYKSKGKFDGAKGPAKVARKKVEEEDEEEEEEEEEEEEEEDE [HMGB3]")
"MET"
>>> label("MAELDPFGAPAGAPGGPALGNGVAGAGEEDPAAAFLAQQESEIAGIENDEAFAILDGGAPGPQPHGEPPGGPDAVDGVMNGEYYQESNGPTDSYAAISQVDRLQSEPESIRKWREEQMERLEALDANSRKQEAEWKEKAIKELEEWYARQDEQLQKTKANNRVADEAFYKQPFADVIGYVTNINHPCYSLEQAAEEAFVNDIDESSPGTEWERVARLCDFNPKSSKQAKDVSRMRSVLISLKQAPLVH [CLTA]")
"MET"
>>> label("MEPTAPSLTEEDLTEVKKDALENLRVYLCEKIIAERHFDHLRAKKILSREDTEEISCRTSSRKRAGKLLDYLQENPKGLDTLVESIRREKTQNFLIQKITDEVLKLRNIKLEHLKGLKCSSCEPFPDGATNNLSRSNSDESNFSEKLRASTVMYHPEGESSTTPFFSTNSSLNLPVLEVGRTENTIFSSTTLPRPGDPGAPPLPPDLQLEEEGTCANSSEMFLPLRSRTVSRQ [BCL10]")
"MET"
>>> label("MRAVLAREMDGRRVLGRFWSGWRRGLGVRPVPEDAGFGTEARHQRQPRGSCQRSGPLGDQPFAGLLPKNLSREELVDALRAAVVDRKGPLVTLNKPQGLPVTGKPGELTLFSVLPELSQSLGLREQELQVVRASGKESSGLVLLSSCPQTASRLQKYFTHARRAQRPTATYCAVTDGIPAASEGKIQAALKLEHIDGVNLTVPVKAPSRKDILEGVKKTLSHFRVVATGSGCALVQLQPLTVFSSQLQVHMVLQLCPVLGDHMYSARVGTVLGQRFLLPAENNKPQRQVLDEALLRRLHLTPSQAAQLPLHLHLHRLLLPGTRARDTPVELLAPLPPYFSRTLQCLGLRLQ [RPUSD3]")
"MET"

---

# Lookup of reported solubility change mitosis (log2) keyed by entry
# System: HeLa Kyoto
# procedureText: solubility change mitosis vs G1/S (difference of NP-40 vs SDS log2 ratios) (log2 ratio difference); higher = more soluble in mitosis
parameterMeasured: solubility change mitosis (log2)

>>> datavalue("MDILKSEILRKRQLVEDRNLLVENKKYFKRSELAKKEEEAYFERCGYKIQPKEEDQKPLTSSNPVLELELAEEKLPMTLSRQEVIRRLRERGEPIRLFGETDYDAFQRLRKIEILTPEVNKGLRNDLKAALDKIDQQYLNEIVGGQEPGEEDTQNDLKVHEENTTIEELEALGESLGKGDDHKDMDIITKFLKFLLGVWAKELNAREDYVKRSVQGKLNSATQKQTESYLRPLFRKLRKRNLPADIKESITDIIKFMLQREYVKANDAYLQMAIGNAPWPIGVTMVGIHARTGREKIFSKHVAHVLNDETQRKYIQGLKRLMTICQKHFPTDPSKCVEYNAL [PRPF18]")
0.09
>>> datavalue("MAVADLALIPDVDIDSDGVFKYVLIRVHSAPRSGAPAAESKEIVRGYKWAEYHADIYDKVSGDMQKQGCDCECLGGGRISHQSQDKKIHVYGYSMAYGPAQHAISTEKIKAKYPDYEVTWANDGY [PHPT1]")
0.028
>>> datavalue("MEGISNFKTPSKLSEKKKSVLCSTPTINIPASPFMQKLGFGTGVNVYLMKRSPRGLSHSPWAVKKINPICNDHYRSVYQKRLMDEAKILKSLHHPNIVGYRAFTEANDGSLCLAMEYGGEKSLNDLIEERYKASQDPFPAAIILKVALNMARGLKYLHQEKKLLHGDIKSSNVVIKGDFETIKICDVGVSLPLDENMTVTDPEACYIGTEPWKPKEAVEENGVITDKADIFAFGLTLWEMMTLSIPHINLSNDDDDEDKTFDESDFDDEAYYAALGTRPPINMEELDESYQKVIELFSVCTNEDPKDRPSAAHIVEALETDV [PBK]")
0.0797

---

# Test system: HeLa Kyoto
# procedureText: solubility in G1/S (NP-40 vs SDS abundance) (log2 ratio); higher = more soluble
# conditionDescription: cell cycle stage: G1/S
# Lookup of reported solubility in G1/S (log2) keyed by entry
parameterMeasured: solubility in G1/S (log2)

>>> datavalue("MTTQQIDLQGPGPWGFRLVGGKDFEQPLAISRVTPGSKAALANLCIGDVITAIDGENTSNMTHLEAQNRIKGCTDNLTLTVARSEHKVWSPLVTEEGKRHPYKMNLASEPQEVLHIGSAHNRSAMPFTASPASSTTARVITNQYNNPAGLYSSENISNFNNALESKTAASGVEANSRPLDHAQPPSSLVIDKESEVYKMLQEKQELNEPPKQSTSFLVLQEILESEEKGDPNKPSGFRSVKAPVTKVAASIGNAQKLPMCDKCGTGIVGVFVKLRDRHRHPECYVCTDCGTNLKQKGHFFVEDQIYCEKHARERVTPPEGYEVVTVFPK [PDLIM1]")
0.455
>>> datavalue("MIEDTMTLLSLLGRIMRYFLLRPETLFLLCISLALWSYFFHTDEVKTIVKSSRDAVKMVKGKVAEIMQNDRLGGLDVLEAEFSKTWEFKNHNVAVYSIQGRRDHMEDRFEVLTDLANKTHPSIFGIFDGHGGETAAEYVKSRLPEALKQHLQDYEKDKENSVLSYQTILEQQILSIDREMLEKLTVSYDEAGTTCLIALLSDKDLTVANVGDSRGVLCDKDGNAIPLSHDHKPYQLKERKRIKRAGGFISFNGSWRVQGILAMSRSLGDYPLKNLNVVIPDPDILTFDLDKLQPEFMILASDGLWDAFSNEEAVRFIKERLDEPHFGAKSIVLQSFYRGCPDNITVMVVKFRNSSKTEEQ [PPM1L]")
-0.0862
>>> datavalue("MADDFGFFSSSESGAPEAAEEDPAAAFLAQQESEIAGIENDEGFGAPAGSHAAPAQPGPTSGAGSEDMGTTVNGDVFQEANGPADGYAAIAQADRLTQEPESIRKWREEQRKRLQELDAASKVTEQEWREKAKKDLEEWNQRQSEQVEKNKINNRIADKAFYQQPDADIIGYVASEEAFVKESKEETPGTEWEKVAQLCDFNPKSSKQCKDVSRLRSVLMSLKQTPLSR [CLTB]")
0.159
>>> datavalue("MSDFDSNPFADPDLNNPFKDPSVTQVTRNVPPGLDEYNPFSDSRTPPPGGVKMPNVPNTQPAIMKPTEEHPAYTQIAKEHALAQAELLKRQEELERKAAELDRREREMQNLSQHGRKNNWPPLPSNFPVGPCFYQDFSVDIPVEFQKTVKLMYYLWMFHAVTLFLNIFGCLAWFCVDSARAVDFGLSILWFLLFTPCSFVCWYRPLYGAFRSDSSFRFFVFFFVYICQFAVHVLQAAGFHNWGNCGWISSLTGLNQNIPVGIMMIIIAALFTASAVISLVMFKKVHGLYRTTGASFEKAQQEFATGVMSNKTVQTAAANAASTAASSAAQNAFKGNQI [SCAMP1]")
0.0609
>>> datavalue("MAIRKKSTKSPPVLSHEFVLQNHADIVSCVAMVFLLGLMFEITAKASIIFVTLQYNVTLPATEEQATESVSLYYYGIKDLATVFFYMLVAIIIHAVIQEYMLDKINRRMHFSKTKHSKFNESGQLSAFYLFACVWGTFILISENYISDPTILWRAYPHNLMTFQMKFFYISQLAYWLHAFPELYFQKTKKEDIPRQLVYIGLYLFHIAGAYLLNLNHLGLVLLVLHYFVEFLFHISRLFYFSNEKYQKGFSLWAVLFVLGRLLTLILSVLTVGFGLARAENQKLDFSTGNFNVLAVRIAVLASICVTQAFMMWKFINFQLRRWREHSAFQAPAVKKKPTVTKGRSSKKGTENGVNGTLTSNVADSPRNKKEKSS [TRAM1]")
-0.0229
